Data origin, for the record: PubChem BioAssay (NCATS)

Tested on: DIV30
Experiment: qHTS profiling for inhibitors of Plasmodium falciparum proliferation (AID 504749); further: nearly all actives have a fitted effect of over 60% in size
Details: P. falciparum in erythrocytes, SYBR Green DNA, 72 h; series mostly up to 28.7 µM
Description: NIH National Institute of Allergy and Infectious Diseases [NIAID] NIH Chemical Genomics Center [NCGC] […] Because mature erythrocytes lack DNA, only Plasmodium-derived DNA is detected. NCGC Assay Protocol Summary: The SYBR Green viability assay was adapted from a method described previously (Plouffe et al., 2008). […] The following morning, fluorescence intensity at 485(14) nm excitation and 535(25) nm emission wavelengths was measured on an EnVision (Perkin Elmer) plate reader. […]
Results filed as inconclusive are left out. Active and inactive are the calls of the source. The call rests on the fitted dose curve; in most records, active means well fitted inhibition curve with a large enough effect; inconclusive means small, poorly fitted or top-dose-only effect; inactive means flat fitted curve, though single readings scatter. Numbered stars: 1 amine (or outer) side, 2 acyl side, 3 side chain; on linkers, the order of the positions; unused ones are H or OH. Bridge positions count the residues as written; N and C are the ends. Square brackets hold non-standard residues; d marks the D form. Peptide text beside a SMILES is read from it. * marks the point of attachment. ξ: configuration not given here. ΔAla(Z-3-ureido) = NC(=O)N/C=C(\N)C(=O)O; X2 = NC1=NC(O)CC(C(N[*:1])C(=O)[*:2])N1; ξβ3hOrn = NCCCC(N)CC(=O)*; Orn = NCCC[CH](N)C(=O)O; Dap = NC[CH](N)C(=O)O
Classes used: T (active), F (inactive)

compound	assigned label
CC(=O)OCC(=O)[C@@]1(O)CCC2C3CCC4=CC(=O)CC[C@]4(C)C3=CC[C@@]21C (stereo partly specified)	F
CC(C)CC1NC(=O)C(CCCN)NC(=O)C(C(C)C)NC(=O)C2CCCN2C(=O)C(Cc2ccccc2)NC(=O)C(CC(C)C)NC(=O)C(CCCN)NC(=O)C(C(C)C)NC(=O)C2CCCN2C(=O)C(Cc2ccccc2)NC1=O (stereo unspecified) (cyclo(FPV[Orn]LFPV[Orn]L); configuration not given here)	T
O=C(OCC1OC(OC(=O)c2cc(O)c(O)c(OC(=O)c3cc(O)c(O)c(O)c3)c2)[C@@H](OC(=O)c2cc(O)c(O)c(OC(=O)c3cc(O)c(O)c(O)c3)c2)C(OC(=O)c2cc(O)c(O)c(OC(=O)c3cc(O)c(O)c(O)c3)c2)C1OC(=O)c1cc(O)c(O)c(OC(=O)c2cc(O)c(O)c(O)c2)c1)c1cc(O)c(O)c(OC(=O)c2cc(O)c(O)c(O)c2)c1 (stereo partly specified)	T
NCCCC(N)CC(=O)NC1CNC(=O)C(C2CC(O)N=C(N)N2)NC(=O)/C(=C/NC(N)=O)NC(=O)C(CO)NC(=O)C(CO)NC1=O (stereo not drawn) (ξβ3hOrn-[Dap]SS[ΔAla(Z-3-ureido)][X2]; lactam 1-C; configuration not given here)	F
CC1(C)C(/C=C/C=C/C=C/C=C2\N(CCCCS(=O)(=O)O)c3ccc4ccccc4c3C2(C)C)=[N+](CCCCS(=O)(=O)[O-])c2ccc3ccccc3c21	F
CCC(Oc1ccccc1)C(=O)NC1C(=O)N2C1SC(C)(C)C2C(=O)O (stereo unspecified)	F
CC(C)C(NC(=O)C(CC(=O)O)NC(=O)C(CCCCN)NC(=O)C(N)CCCN=C(N)N)C(=O)NC(Cc1ccc(O)cc1)C(=O)O (stereo unspecified) (H-RKDVY-OH; configuration not given here)	F
CCC1NC(=O)C(NC(=O)c2ncccc2O)C(C)OC(=O)C(c2ccccc2)NC(=O)C2CC(=O)CCN2C(=O)C(Cc2ccccc2)N(C)C(=O)C2CCCN2C1=O (stereo unspecified)	F
C=CC1=C(C(=O)O)N2C(=O)[C@@H](NC(=O)C(N=O)c3csc(N)n3)[C@H]2SC1 (stereo partly specified)	F
CC(C)CC(NC(=O)C(COC(C)(C)C)NC(=O)C(Cc1ccc(O)cc1)NC(=O)C(CO)NC(=O)C(Cc1c[nH]c2ccccc12)NC(=O)C(Cc1cnc[nH]1)NC(=O)C1CCC(=O)N1)C(=O)NC(CCCN=C(N)N)C(=O)N1CCCC1C(=O)NNC(N)=O (stereo unspecified)	F
CC(=O)OCC1=C(C(=O)O)N2C(=O)C(NC(=O)Cc3ccccc3)C2SC1 (stereo unspecified)	F
